test system: ryegrass, Italian (Italian ryegrass, Lolium multiflorum); experiment: Test A postemergence; type: in vivo; conditions: Lolium multiflorum, post-emergence, 240 h, 125 g ai/ha, postemergence, visual injury rating after approximately 10 d; read-out: Ryegrass, Italian plant response rating (0 to 100 scale, 0 no effect, 100 complete control)
Each item that follows carries a reported pest or weed control at 125 g/ha.
Answer with a number only, understood to be in %.

A selection of reference data follows.
O=C1NC[C@H](c2ccc3c(c2)CCO3)[C@H]1C(=O)Nc1ccc(F)cc1F 0
CN1C[C@H](c2cccc(F)c2)[C@@H](C(=O)Nc2ccccc2F)C1=O 20
Cc1cc(F)ccc1NC(=O)[C@H]1C(=O)NC[C@@H]1c1cccc(C(F)(F)F)c1 20

Ask: So what's the measured pest or weed control at 125 g/ha for this one? "Cc1c(F)cccc1NC(=O)[C@H]1C(=O)N(C)C[C@@H]1c1cc(F)c(F)c(F)c1"
Reply: 20

Ask: So what's the measured pest or weed control at 125 g/ha for this one? "CCOc1ccc([C@H]2CNC(=O)[C@@H]2C(=O)Nc2cccc(F)c2F)cc1"
Reply: 0

----------
tested on: corn (Zea mays); assay: Test G Pre-Emergence Protocol; type: in vivo; settings: Zea mays, pre-emergence, 312 h, 250 g ai/ha, evaluated after 13 days, read-out: Corn damage rating (100=total damage to plant; 0=no damage to plant)
Each item that follows carries a reported plant injury at 250 g/ha.
Answer with a number only, understood to be in %.

A selection of reference data follows.
compound	metric	observed result
Cc1c(NC(=O)[C@@H]2C(=O)N(C)C[C@H]2c2ccc(C(F)(F)F)cc2)ccc(F)c1F (racemic)	plant injury at 250 g/ha	50
Cc1ccc(NC(=O)[C@H]2C(=O)N(C)C[C@@H]2c2ccc(C(F)(F)F)cc2)nc1 (racemic)	plant injury at 250 g/ha	30
CN1CC(c2cc(F)c(Cl)c(F)c2)C(C(=O)Nc2cccc(F)c2F)C1=O (stereo not shown)	plant injury at 250 g/ha	80

Now for the compound whose plant injury at 250 g/ha we want.
Ask: So what's the measured plant injury at 250 g/ha for this one? COc1c(Cl)ccc([C@H]2CNC(=O)[C@@H]2C(=O)Nc2cccc(F)n2)c1F (racemic)
Reply: 10

----------
tested on: barnyardgrass (Echinochloa crus-galli); assay: Test G Pre-Emergence Protocol; assay type: in vivo; conditions: Echinochloa crus-galli, pre-emergence, 312 h, 62.5 g ai/ha, evaluated after 13 days, 100=total damage to plant, 0=no damage to plant, read-out: plant damage rating, Barnyardgrass
metric: pest or weed control at 62.5 g/ha (%)
Answer with a number only, understood to be in %.

compound	pest or weed control at 62.5 g/ha, %
Cc1cscc1NC(=O)[C@@H]1C(=O)N(C)C[C@H]1c1ccc(C(F)(F)F)cc1 (racemic)	60
CN1C[C@H](c2ccc(F)c(OCC(F)(F)F)c2)[C@@H](C(=O)Nc2ccccc2F)C1=O (racemic)	60
CN1C[C@@H](c2ccc(C(F)(F)F)cc2)[C@H](C(=O)Nc2ccno2)C1=O (racemic)	0
CN1C[C@@H](c2ccc(C(F)(F)F)nc2)[C@H](C(=O)Nc2ccccc2F)C1=O (racemic)	80
CN1C[C@H](c2cccc(C(F)F)c2)[C@@H](C(=O)Nc2cccc(F)c2F)C1=O (racemic)	90

Ask: // lookup pest or weed control at 62.5 g/ha | system=barnyardgrass (Echinochloa crus-galli) | key= Cc1c(NC(=O)[C@H]2C(=O)N(C)C[C@@H]2c2ccc(C(F)(F)F)cc2)cccc1C(F)(F)F (racemic)
Reply: 10

Ask: // lookup pest or weed control at 62.5 g/ha | system=barnyardgrass (Echinochloa crus-galli) | key= CN1C[C@@H](c2ccc(C(F)(F)F)cc2)[C@H](C(=O)Nc2nnnn2C)C1=O (racemic)
Reply: 0

----------
tested on: pigweed (Amaranthus retroflexus); test: Test A postemergence; type: in vivo; settings: 125 g ai/ha, postemergence; visual injury rating on 0 to 100 scale (0 no effect, 100 complete control), approx. 10 d
Each item that follows carries a reported Pigweed plant response rating.
The reply should be a number, written without any unit.

A selection of reference data follows.
compound	Pigweed plant response rating
CS(=O)(=O)c1ccccc1NC(=O)C1C(=O)NCC1c1ccc(Br)cc1 (stereo not drawn)	50
O=C(Nc1cccc(F)c1F)C1C(=O)N(CC=CBr)CC1c1cccc(C(F)(F)F)c1 (stereo not drawn)	0
O=C1NCC(c2cccc(O)c2)C1C(=O)Nc1cccc(F)c1F (racemic)	0
Cc1cc(C2CN(C)C(=O)C2C(=O)Nc2ccccc2C(F)(F)F)ccc1F (stereo not drawn)	20

Ask: // lookup Pigweed plant response rating | system=pigweed (Amaranthus retroflexus) | key= O=C1NCC(c2cc(F)cc(C(F)(F)F)c2)C1C(=O)Nc1cccc(F)c1F (stereo not drawn)
Reply: 40

Ask: // lookup Pigweed plant response rating | system=pigweed (Amaranthus retroflexus) | key= CC(C)c1ccc(C2CNC(=O)C2C(=O)Nc2cccc(F)c2F)cc1 (stereo not drawn)
Reply: 0

Ask: // lookup Pigweed plant response rating | system=pigweed (Amaranthus retroflexus) | key= CN1CC(c2ccc(F)cc2)C(C(=O)Nc2ccccc2F)C1=O (stereo not drawn)
Reply: 0

Ask: // lookup Pigweed plant response rating | system=pigweed (Amaranthus retroflexus) | key= CN1CC(c2cccc(OC(F)(F)C(F)F)c2)C(C(=O)Nc2ccccc2C(F)(F)F)C1=O (stereo not drawn)
Reply: 50

Ask: // lookup Pigweed plant response rating | system=pigweed (Amaranthus retroflexus) | key= CC(C)c1ccc(C2CNC(=O)C2C(=O)Nc2ccccc2S(C)(=O)=O)cc1 (racemic)
Reply: 0

----------
system: redroot pigweed (Amaranthus retroflexus); assay: Test G Post-Emergence Protocol; assay type: in vivo; settings: Amaranthus retroflexus, post-emergence, 312 h, 250 g ai/ha, evaluated after 13 days, read-out: damage to plant, Pigweed, Redroot (100=total damage to plant; 0=no damage to plant)
Each item that follows carries a reported pest or weed control at 250 g/ha.
Answer with a number only, understood to be in %.

compound	target of assay	output unit	observed result
CN1C[C@@H](c2ccc(C(F)(F)F)cc2)[C@H](C(=O)Nc2ccnc(Cl)n2)C1=O (racemic) [Compound 1544]	redroot pigweed (Amaranthus retroflexus)	%	0
CN1C[C@@H](c2ccc(C(F)(F)F)cc2)[C@H](C(=O)Nc2cnccn2)C1=O (racemic) [Compound 1572]	redroot pigweed (Amaranthus retroflexus)	%	20

Now for the compound whose pest or weed control at 250 g/ha we want.
Ask: So what's the measured pest or weed control at 250 g/ha for this one? Cc1cc(NC(=O)[C@@H]2C(=O)N(C)C[C@H]2c2ccc(C(F)(F)F)cc2)n[nH]1 (racemic) [Compound 1532]
Reply: 0

----------
test system: Galium (catchweed bedstraw, Galium aparine); test: Test A postemergence; format: in vivo; details: Galium, post-emergence, 240 h, 125 g ai/ha, Postemergence; visual injury after approximately 10 d; 0 to 100 scale where 0 is no effect and 100 is complete control; read-out: Plant response rating, Galium
Each item that follows carries a reported pest or weed control at 125 g/ha.
Answer with a number only, understood to be in %.

A selection of reference data follows.
compound	pest or weed control at 125 g/ha, %
C=CCOc1cccc(C2CN(C)C(=O)C2C(=O)Nc2cccc(F)c2F)c1 (stereo not drawn)	50
Cc1cc([C@H]2CN(C)C(=O)[C@@H]2C(=O)Nc2ccccc2C(F)(F)F)ccc1Cl	40
CCc1cc(CC)cc([C@H]2CNC(=O)[C@@H]2C(=O)Nc2ccccc2C(F)(F)F)c1	20
Cc1ccc([C@H]2CN(C)C(=O)[C@@H]2C(=O)Nc2ccccc2S(C)(=O)=O)cc1Cl	30
CN1CC[C@H](c2ccccc2C(F)(F)F)[C@@H](C(=O)Nc2ccccc2C(F)(F)F)C1=O	0

Now for the compound whose pest or weed control at 125 g/ha we want.
Ask: So what's the measured pest or weed control at 125 g/ha for this one? "CSc1ccccc1NC(=O)[C@H]1C(=O)N(C)C[C@@H]1c1ccc(C)c(F)c1"
Reply: 30

----------
test system: barnyardgrass (Echinochloa crus-galli); test: Test A preemergence; type: in vivo; conditions: Echinochloa crus-galli, pre-emergence, 240 h, 500 g ai/ha, Preemergence, visual injury vs untreated controls after approximately 10 d; read-out: Barnyardgrass plant response rating (0 to 100 scale where 0 is no effect and 100 is complete control)
metric: pest or weed control at 500 g/ha (%)
Answer with a number only, understood to be in %.

Cc1c(F)ccc([C@H]2CN(C)C(=O)[C@@H]2C(=O)Nc2ccc(F)c(F)c2F)c1F 90
O=C1NC[C@H](c2cc(F)c(C(F)(F)F)c(F)c2)[C@H]1C(=O)Nc1ccc(F)cc1F 90
Cc1c(F)ccc([C@H]2CN(C)C(=O)[C@@H]2C(=O)Nc2ccccc2F)c1F 90
COc1cc(C(F)(F)F)ccc1[C@H]1CN(C)C(=O)[C@@H]1C(=O)Nc1ccccc1F 90

Ask: So what's the measured pest or weed control at 500 g/ha for this one? "CN1C[C@H](c2cccc(C3CC3)c2)[C@@H](C(=O)Nc2ccccc2F)C1=O"
Reply: 100

Ask: So what's the measured pest or weed control at 500 g/ha for this one? "CCOc1ccc([C@H]2CNC(=O)[C@@H]2C(=O)Nc2cccc(F)c2F)cc1"
Reply: 80

Ask: So what's the measured pest or weed control at 500 g/ha for this one? "Cc1cc(C)cc([C@H]2CN(C)C(=O)[C@@H]2C(=O)Nc2ccccc2C(F)(F)F)c1"
Reply: 90

Ask: So what's the measured pest or weed control at 500 g/ha for this one? "COc1ccc(CN2CC[C@H](c3ccc(F)cc3)[C@@H](C(=O)Nc3cccc(F)c3F)C2=O)cc1"
Reply: 0
